assay: Membrane permeability test using Caco-2 cells with preincubation; type: in vitro ADME; conditions: Caco-2; preincubation 20 to 24 hours; Apical FaSSIF/HBSS pH 6.0, Basal HBSS 4% BSA pH 7.4; 180 minutes; read-out: Caco2 Papp
Positions of bridges follow the written chain, without caps; N, C: chain ends. Non-standard residues stand in square brackets, D forms with d. Residues, ends and D or L forms follow the SMILES beside them. *: point of attachment. NMeF = CN[C@@H](Cc1ccccc1)C(=O)O; NMeI = CC[C@H](C)[C@H](NC)C(=O)O; NMeT = CN[C@H](C(=O)O)[C@@H](C)O; NMeL = CN[C@@H](CC(C)C)C(=O)O; dNMeV = CN[C@@H](C(=O)O)C(C)C; NMeV = CN[C@H](C(=O)O)C(C)C; NMeA = CN[C@@H](C)C(=O)O; Piperidide = C1CCN(*)CC1; Abu = CC[C@H](N)C(=O)O; NBuGly = CCCCNCC(=O)O; Sar = CNCC(=O)O; tBu = CC(C)(C)*
Assignment: determine reported Papp A→B for the given compounds.
# unit: ×10⁻⁶ cm/s | format: bare number

Give the reported Papp A→B for this compound. CC[C@@H]1NC(=O)[C@@H]2CCCN2C(=O)[C@H](C(C)C)NC(=O)[C@H](Cc2ccccc2)N(C)C(=O)[C@H](C)N(C)C(=O)[C@H](CC(C)C)N(C)C(=O)[C@H]([C@@H](C)O)N(C)C(=O)[C@H](CC(C)C)N(C)C(=O)[C@H](CC)NC(=O)[C@H](Cc2ccccc2)N(C)C(=O)CN(C)C(=O)C[C@@H](C(=O)N2CCCCC2)NC(=O)[C@H](C(C)C)N(C)C1=O [pd122] ([Sar][NMeF][Abu][NMeL][NMeT][NMeL][NMeA][NMeF]VP[Abu][NMeV]D-Piperidide; lactam N-13)
0.06

Give the reported Papp A→B for this compound. CCCCN1CC(=O)N[C@@H]([C@@H](C)CC)C(=O)N(C)[C@@H](CC(C)C)C(=O)N[C@H](C(=O)N2CCCCC2)CC(=O)N(C)[C@@H](C)C(=O)N(C)[C@@H](CC(C)C)C(=O)N[C@@H]([C@@H](C)O)C(=O)N(C)[C@@H](Cc2ccccc2)C(=O)N[C@@H](CC)C(=O)N(C)[C@@H](Cc2ccccc2)C(=O)N[C@@H](CC(C)C)C(=O)N(C)[C@@H]([C@@H](C)CC)C(=O)N[C@@H](CC(C)C)C1=O [pd103] ([NMeA][NMeL]T[NMeF][Abu][NMeF]L[NMeI]L[NBuGly]I[NMeL]D-Piperidide; lactam N-13)
0.08

Give the reported Papp A→B for this compound. CCCCN1CC(=O)N(C)[C@@H](CC(C)C)C(=O)N[C@@H](COC(C)(C)C)C(=O)N(C)[C@@H](Cc2ccccc2)C(=O)N(C)[C@@H](C)C(=O)N(C)[C@@H](C(C)C)C(=O)N[C@H](C(=O)N2CCCCC2)CC(=O)N(C)[C@H](C(C)C)C(=O)N(C)[C@@H](Cc2ccccc2)C(=O)N2CCC[C@H]2C(=O)N(C)[C@@H](C(C)C)C(=O)N(C)[C@@H](CC(C)C)C(=O)N[C@@H]([C@@H](C)O)C1=O [pd123] ([dNMeV][NMeF]P[NMeV][NMeL]T[NBuGly][NMeL]S(tBu)[NMeF][NMeA][NMeV]D-Piperidide; lactam N-13)
0.56

----------
assay: Metabolic stability test: liver microsomal stability assay; type: in vitro ADME, mouse; conditions: mouse liver microsomes 0.5 mg protein/mL, compound 1 µM, absence of NADPH
Starred links: 1 amine or outer side, 2 acyl side, 3 side chain; linkers in the order of their positions; H or OH if unused. Positions of bridges follow the written chain, without caps; N, C: chain ends. Non-standard residues stand in square brackets, D forms with d. Residues, ends and D or L forms follow the SMILES beside them. *: point of attachment. NMedβ3hAla = C[C@H](CC(=O)[*:2])N(C)[*:1]; NMeF = CN[C@@H](Cc1ccccc1)C(=O)O; NMeI = CC[C@H](C)[C@H](NC)C(=O)O; hPhe = N[C@@H](CCc1ccccc1)C(=O)O; NMeD = CN[C@@H](CC(=O)O)C(=O)O; NMeL = CN[C@@H](CC(C)C)C(=O)O; NMeV = CN[C@H](C(=O)O)C(C)C; NMeAbu = CC[C@H](NC)C(=O)O; NMeA = CN[C@@H](C)C(=O)O; Piperidide = C1CCN(*)CC1; Abu = CC[C@H](N)C(=O)O; Sar = CNCC(=O)O; tBu = CC(C)(C)*
Assignment: determine reported Mouse Hepatic Microsome CLh,int NADPH(-) for the given molecules.
# unit: µL/min/mg Protein | format: bare number

Give the reported Mouse Hepatic Microsome CLh,int NADPH(-) for this molecule. CC[C@H](C)[C@@H]1NC(=O)[C@H]([C@@H](C)CC)N(C)C(=O)[C@@H](C)NC(=O)C[C@@H](C(=O)N2CCCCC2)N(C)C(=O)[C@H](C(C)C)NC(=O)[C@H](Cc2ccccc2)N(C)C(=O)[C@H](COC(C)(C)C)NC(=O)[C@H](CC(C)C)N(C)C(=O)[C@H](C)NC(=O)CN(C)C(=O)[C@H](CC(C)C)N(C)C(=O)[C@H](C)N(C)C(=O)[C@H](Cc2ccccc2)N(C)C1=O [pd151] ([dA][NMeI]I[NMeF][NMeA][NMeL][Sar]A[NMeL]S(tBu)[NMeF]V[NMeD]-Piperidide; lactam N-13)
22.4

Give the reported Mouse Hepatic Microsome CLh,int NADPH(-) for this molecule. CC[C@@H]1NC(=O)[C@H](CC(C)C)N(C)C(=O)C[C@@H](C(=O)N2CCCCC2)N(C)C(=O)[C@H](C(C)C)NC(=O)[C@H](CC(C)C)N(C)C(=O)[C@H](C)NC(=O)[C@H](CC)N(C)C(=O)[C@H](C(C)C)NC(=O)[C@H](CC(C)C)N(C)C(=O)[C@H](C)N(C)C(=O)[C@H](Cc2ccccc2)N(C)C(=O)[C@H](C(C)C)NC(=O)[C@@H]2CCCN2C(=O)[C@H](C(C)C)N(C)C1=O [pd078] ([NMeL][Abu][NMeV]PV[NMeF][NMeA][NMeL]V[NMeAbu]A[NMeL]V[NMeD]-Piperidide; lactam N-14)
22.9

Give the reported Mouse Hepatic Microsome CLh,int NADPH(-) for this molecule. CC[C@@H]1NC(=O)[C@H](Cc2ccccc2)N(C)C(=O)[C@@H]2CCCN2C(=O)[C@H](CC(C)C)N(C)C(=O)[C@H](C(C)C)NC(=O)[C@H](CC(C)C)N(C)C(=O)[C@H]([C@@H](C)O)NC(=O)[C@H](Cc2ccccc2)N(C)C(=O)CN(C)C(=O)C[C@@H](C)N(C)C(=O)[C@H](C(C)C)NC(=O)[C@H](CC)N(C)C(=O)[C@H](C)N(C)C1=O [pd149] (cyclo([Abu][NMeA][NMeAbu]V[NMedβ3hAla][Sar][NMeF]T[NMeL]V[NMeL]P[NMeF]))
1.5

Give the reported Mouse Hepatic Microsome CLh,int NADPH(-) for this molecule. CC[C@H](C)[C@@H]1NC(=O)CN(C)C(=O)C[C@@H](C(=O)N2CCCCC2)N(C)C(=O)[C@H](CC(C)C)NC(=O)[C@H](CC(C)C)N(C)C(=O)[C@H]([C@@H](C)O)NC(=O)[C@H](Cc2ccccc2)N(C)C(=O)[C@H](CC(C)C)NC(=O)[C@H](C(C)C)N(C)C(=O)[C@H](C)N(C)C(=O)[C@H](CC(C)C)N(C)C(=O)[C@H](CCc2ccccc2)NC(=O)[C@H](CC(C)C)N(C)C1=O [pd160] ([Sar]I[NMeL][hPhe][NMeL][NMeA][NMeV]L[NMeF]T[NMeL]L[NMeD]-Piperidide; lactam N-13)
22.3

----------
assay: Metabolic stability test: liver microsomal stability assay; assay type: in vitro ADME, mouse; conditions: male, pH 7.4; mouse liver microsomes 0.5 mg protein/mL, compound 1 µM, presence of NADPH; read-out: Mouse Hepatic Microsome CLh,int NADPH(+)
Starred links: 1 amine or outer side, 2 acyl side, 3 side chain; linkers in the order of their positions; H or OH if unused. Positions of bridges follow the written chain, without caps; N, C: chain ends. Non-standard residues stand in square brackets, D forms with d. Residues, ends and D or L forms follow the SMILES beside them. *: point of attachment. NMedβ3hAla = C[C@H](CC(=O)[*:2])N(C)[*:1]; NMeF = CN[C@@H](Cc1ccccc1)C(=O)O; NMeI = CC[C@H](C)[C@H](NC)C(=O)O; NMeT = CN[C@H](C(=O)O)[C@@H](C)O; hPhe = N[C@@H](CCc1ccccc1)C(=O)O; NMeβAla = CN(CCC(=O)[*:2])[*:1]; NMeL = CN[C@@H](CC(C)C)C(=O)O; NMeAbu = CC[C@H](NC)C(=O)O; Piperidide = C1CCN(*)CC1; Sar = CNCC(=O)O; tBu = CC(C)(C)*
measuredEndpoint: microsomal CLint at 1 µM (µL/min/mg)
# unit: µL/min/mg | format: bare number

Give the reported microsomal CLint at 1 µM for this compound. CC[C@H](C)[C@@H]1NC(=O)[C@H](CC(C)C)N(C)C(=O)[C@H](CC(C)C)NC(=O)CCN(C)C(=O)C[C@@H](C)N(C)C(=O)CN(C)C(=O)[C@H](CC(C)C)N(C)C(=O)[C@@H]2CCCN2C(=O)[C@H](CC(C)C)N(C)C(=O)[C@H](COC(C)(C)C)NC(=O)[C@H]([C@@H](C)CC)N(C)C(=O)[C@H](CCc2ccccc2)NC(=O)[C@H](Cc2ccccc2)N(C)C1=O [pd142] (cyclo(I[NMeF][hPhe][NMeI]S(tBu)[NMeL]P[NMeL][Sar][NMedβ3hAla][NMeβAla]L[NMeL]))
31.7

Give the reported microsomal CLint at 1 µM for this compound. CC[C@H](C)[C@@H]1NC(=O)[C@H](Cc2ccccc2)N(C)C(=O)CN(C)C(=O)C[C@@H](C(=O)N2CCCCC2)NC(=O)[C@H]([C@@H](C)CC)N(C)C(=O)[C@H](COC(C)(C)C)NC(=O)[C@@H]2CCCN2C(=O)[C@H](CCc2ccccc2)NC(=O)[C@H](CC)N(C)C(=O)[C@H](CC(C)C)NC(=O)[C@H](CC(C)C)N(C)C(=O)[C@H]([C@@H](C)O)N(C)C(=O)[C@H](CC(C)C)N(C)C1=O [pd114] ([Sar][NMeF]I[NMeL][NMeT][NMeL]L[NMeAbu][hPhe]PS(tBu)[NMeI]D-Piperidide; lactam N-13)
35.6
